# assay.notes: Caspase-3/7 induction in HepG2 cells by small molecules, qHTS assay (AID 1346978); further: on the % scale 0 is the no-effect control and ±100 the full control effect; nearly all actives have a fitted effect of over 15% in size
# condition.notes: HepG2 caspase-3/7 activation, Caspase-Glo luminescence, 17 h; series mostly up to 92.4 µM
Inconclusive results are not listed. Calls of active or inactive are those of the source. The call rests on the fitted dose curve; in most records, active means well fitted activation curve with a large enough effect in the repeat runs; inconclusive means weak or mixed curves; inactive means flat fitted curve, though single readings scatter.
measurement.type: caspase activation

BrCCOc1ccccc1
inactive
CCO[Si](CC(C)C)(OCC)OCC
inactive
CCCC(=O)OC
inactive

---

# study.target: Thyrotropin receptor (Homo sapiens) (UniProt P16473)
# Sequence (P16473 whole entry, looked up): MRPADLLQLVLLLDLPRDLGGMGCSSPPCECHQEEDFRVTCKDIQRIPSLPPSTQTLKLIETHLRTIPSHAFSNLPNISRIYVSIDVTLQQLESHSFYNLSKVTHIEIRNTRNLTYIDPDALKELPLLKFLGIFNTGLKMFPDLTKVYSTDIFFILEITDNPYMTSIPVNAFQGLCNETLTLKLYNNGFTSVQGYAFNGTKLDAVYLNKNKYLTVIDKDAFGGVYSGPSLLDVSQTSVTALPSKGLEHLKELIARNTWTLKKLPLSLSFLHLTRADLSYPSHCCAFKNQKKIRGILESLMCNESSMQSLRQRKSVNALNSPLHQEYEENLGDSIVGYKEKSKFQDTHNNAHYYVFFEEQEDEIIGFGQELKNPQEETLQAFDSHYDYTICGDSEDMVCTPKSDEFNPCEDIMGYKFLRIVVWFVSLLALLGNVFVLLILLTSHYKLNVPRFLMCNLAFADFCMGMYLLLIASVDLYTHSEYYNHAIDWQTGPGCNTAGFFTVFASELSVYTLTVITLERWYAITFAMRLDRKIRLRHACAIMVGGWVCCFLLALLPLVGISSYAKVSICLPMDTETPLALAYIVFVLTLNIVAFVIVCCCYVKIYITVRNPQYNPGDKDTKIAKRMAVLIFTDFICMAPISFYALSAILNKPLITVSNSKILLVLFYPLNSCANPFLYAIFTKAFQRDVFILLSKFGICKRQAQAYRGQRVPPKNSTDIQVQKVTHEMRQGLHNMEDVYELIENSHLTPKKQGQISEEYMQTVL
# assay.notes: qHTS assay to identify small molecule agonists of the thyroid stimulating hormone receptor (TSHR) signaling pathway (AID 1224843); further: on the % scale 0 is the no-effect control and ±100 the full control effect; nearly all actives have a fitted effect of over 45% in size
# condition.notes: TSHR-HEK293 cells, cAMP HTRF, agonist mode, 30 min; series mostly up to 92.4 µM
Records with an inconclusive call do not appear. Active and inactive are the calls of the source. The call rests on the fitted dose curve.
measurement.type: activation

# count of solved cases: 5
Cc1ccc(OC(=O)CC(C)C)cc1
inactive
CCCCN1C(=O)c2ccccc2C1=O
inactive
CC(=O)Nc1ccc(S(=O)(=O)Nc2cc(C)on2)cc1
inactive
C=CCN(CC=C)CC=C
inactive
C=CCCCCCCCCCCCCCC
2.45% [at 19 µM] (inactive)

Now consider the entry below.
Task item: Which activation value is on record for CC(=O)SC[C@@H](C)C(=O)N1CCC[C@H]1C(=O)N[C@@H](Cc1ccccc1)C(=O)O ?
Reply: inactive

Hello, the source for this data is PubChem BioAssay (Tox21), in case you need it.
